tested on: L1210 cell line; assay: In vitro cytotoxic activity, L1210; format: cell-based
endpoint_label: cytotoxic potency, fold less potent than 4
Numbers only.

[
  {
    "item_smiles": "CC(C)[C@H]1C(=O)OC[C@@H](NC(=O)c2ccc3ccccc3c2)C(=O)N2CCCC[C@H]2C(=O)NCC(=O)N(C)CC(=O)N(C)[C@@H](C(C)C)C(=O)OC[C@@H](NC(=O)c2ccc3ccccc3c2)C(=O)N2CCCC[C@H]2C(=O)NCC(=O)N(C)CC(=O)N1C",
    "system_name": "L1210 cell line",
    "reported_measurement": 2000
  }
]

Prompt line: Please give the measured cytotoxic potency, fold less potent than 4 for this compound: COc1ccc2nc(C(=O)N[C@@H]3COC(=O)[C@H](C(C)C)N(C)C(=O)CN(C)C(=O)CNC(=O)[C@@H]4CCCCN4C(=O)[C@H](NC(=O)c4ccc5cc(OC)ccc5n4)COC(=O)[C@H](C(C)C)N(C)C(=O)CN(C)C(=O)CNC(=O)[C@@H]4CCCCN4C3=O)ccc2c1
Response line: 2

---

test system: L1210 cell line; assay: In vitro cytotoxic activity, L1210; type: cell-based
I'd appreciate it if you could supply cytotoxic potency, fold less potent than 1 values for the items below.
Answers are plain numbers.

Example entries begin here.
[
  {
    "molecule": "Cc1ccc2nc(C(=O)N[C@@H]3COC(=O)[C@H](C(C)C)N(C)C(=O)CN(C)C(=O)CNC(=O)[C@@H]4CCCCN4C(=O)[C@H](NC(=O)c4nc5ccc(C)cc5cc4O)COC(=O)[C@H](C(C)C)N(C)C(=O)CN(C)C(=O)CNC(=O)[C@@H]4CCCCN4C3=O)c(O)cc2c1",
    "system_name": "L1210 cell line",
    "reported_measurement": 1
  },
  {
    "molecule": "CC(C)C1C(=O)OCC(NC(=O)c2ncccc2O)C(=O)N2CCCCC2C(=O)NCC(=O)N(C)CC(=O)N(C)C(C(C)C)C(=O)OCC(NC(=O)c2ncccc2O)C(=O)N2CCCCC2C(=O)NCC(=O)N(C)CC(=O)N1C (stereo not drawn)",
    "system_name": "L1210 cell line",
    "reported_measurement": 4000
  },
  {
    "molecule": "CC(C)[C@H]1C(=O)OC[C@@H](NC(=O)c2ccc3ccccc3n2)C(=O)N2CCCC[C@H]2C(=O)NCC(=O)N(C)CC(=O)N(C)[C@@H](C(C)C)C(=O)OC[C@@H](NC(=O)c2ccc3ccccc3n2)C(=O)N2CCCC[C@H]2C(=O)NCC(=O)N(C)CC(=O)N1C",
    "system_name": "L1210 cell line",
    "reported_measurement": 10
  }
]

Could I get cytotoxic potency, fold less potent than 1 for every one of these entries?
1. CC(C)[C@H]1C(=O)OC[C@@H](NC(=O)c2cc3ccccc3cc2O)C(=O)N2CCCC[C@H]2C(=O)NCC(=O)N(C)CC(=O)N(C)[C@@H](C(C)C)C(=O)OC[C@@H](NC(=O)c2cc3ccccc3cc2O)C(=O)N2CCCC[C@H]2C(=O)NCC(=O)N(C)CC(=O)N1C
2. COc1ccc2nc(C(=O)NC3COC(=O)C(C(C)C)N(C)C(=O)CN(C)C(=O)CNC(=O)C4CCCCN4C(=O)C(NC(=O)c4nc5ccc(OC)cc5cc4O)COC(=O)C(C(C)C)N(C)C(=O)CN(C)C(=O)CNC(=O)C4CCCCN4C3=O)c(O)cc2c1 (stereo not drawn)
3. CC(C)[C@H]1C(=O)OC[C@@H](NC(=O)c2nc3cc(Cl)ccc3cc2O)C(=O)N2CCCC[C@H]2C(=O)NCC(=O)N(C)CC(=O)N(C)[C@@H](C(C)C)C(=O)OC[C@@H](NC(=O)c2nc3cc(Cl)ccc3cc2O)C(=O)N2CCCC[C@H]2C(=O)NCC(=O)N(C)CC(=O)N1C

Response line:
1. 10000
2. 2
3. 0.5
